B1: CDC34 (parent)
chain: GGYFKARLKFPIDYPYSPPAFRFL

Variants of: B1
Assay: protein stability index of a GFP-peptide fusion (GPS, HEK-293T) (PSI 1-6); higher = more stable;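 note: lentivirally expressed fusions sorted by FACS into six bins by GFP to DsRed ratio, PSI derived from sequencing read proportions per bin multiplied by bin number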
Conditions: c terminus: a fixed tail appended
Would you please tag the item fulfilled when its protein stability index is 3 or above, and not fulfilled when it is below?

>  <seq_string>
GGYFKARLKFPIDYHYSPPAFRFL [P15H]

>  <category_label>
fulfilled

$$$$
>  <seq_string>
GGYFKADLKFPIDYPYSPPAFRFL [R7D]

>  <category_label>
not fulfilled

$$$$
>  <seq_string>
SGYFKARLKFPIDYPYSPPAFRFL [G1S]

>  <category_label>
fulfilled

$$$$
>  <seq_string>
GGCFKARLKFPIDYPYSPPAFRFL [Y3C]

>  <category_label>
fulfilled

$$$$
>  <seq_string>
GGYFKARLKDPIDYPYSPPAFRFL [F10D]

>  <category_label>
fulfilled

$$$$
>  <seq_string>
KGYFKARLKFPIDYPYSPPAFRFL [G1K]

>  <category_label>
not fulfilled

$$$$
